Data origin: patent US20060189591A1

# SYSTEM_NAME: Cyclooxygenase-1 (COX-1) (Ovis aries)
# Construct: purchased Cayman Chemical Company 560101
# Sequence (P05979 25-600): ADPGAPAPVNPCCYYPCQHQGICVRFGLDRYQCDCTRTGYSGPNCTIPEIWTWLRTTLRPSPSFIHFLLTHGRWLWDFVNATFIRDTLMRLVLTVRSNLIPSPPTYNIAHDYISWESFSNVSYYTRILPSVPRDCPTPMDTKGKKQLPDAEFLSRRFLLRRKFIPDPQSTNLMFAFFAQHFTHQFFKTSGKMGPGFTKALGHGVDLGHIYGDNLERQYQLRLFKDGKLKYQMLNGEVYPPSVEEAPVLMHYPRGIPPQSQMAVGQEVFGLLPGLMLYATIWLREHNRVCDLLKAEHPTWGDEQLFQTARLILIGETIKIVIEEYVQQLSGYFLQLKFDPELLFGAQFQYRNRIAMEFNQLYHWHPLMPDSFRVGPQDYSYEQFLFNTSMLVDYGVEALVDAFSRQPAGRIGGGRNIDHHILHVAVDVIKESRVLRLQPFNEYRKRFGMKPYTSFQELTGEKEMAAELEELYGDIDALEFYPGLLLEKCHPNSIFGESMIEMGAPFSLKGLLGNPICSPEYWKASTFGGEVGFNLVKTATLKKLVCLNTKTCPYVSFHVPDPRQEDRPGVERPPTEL
# ASSAY_NAME: COX Inhibitor Screening Assay Kit, COX-1
# Type: biochemical
# CONDITION_SUMMARY: 50 μM compound; read-out: Inhibitory effect against COX-1 at 50 μM (% inhibition)
Where a name gives a salt, the structure may show the parent alone.
Would you mind telling me the reported inhibition at 50 µM of each entry?
Answers are plain numbers, in %.

# count of solved cases: 3
- COMPOUND: "COc1ccc(-c2nc(C(=O)N3CCC[C@@H](F)C3)cn2-c2ccccn2)cn1"
  OBSERVABLE: "inhibition at 50 µM"
  MEAS_VALUE: 39
- COMPOUND: "COc1ccc(-n2nc(C(=O)N3CCN(C)CC3)nc2-c2ccc(C)cc2)cn1 [Example 37, hydrochloride]"
  OBSERVABLE: "inhibition at 50 µM"
  MEAS_VALUE: -3.2
- COMPOUND: "COc1ccc(-c2nc(C(=O)N3CCN(C)CC3)cn2-c2ccc(F)cc2)cn1"
  OBSERVABLE: "inhibition at 50 µM"
  MEAS_VALUE: 28.4

Now take the following compound into account.
Q: Given COc1ccc(-c2nc(C(=O)N3CCN(C)CC3)nn2-c2ccc(C)cc2)cn1 [Example 38, hydrochloride] , state its recorded inhibition at 50 µM.
Result: 3.5
